From: the FLAb antibody collection (doi:10.7554/elife.23156)

Attribute: pKd
B1: scFv; the commonest letter at each place (parent)
chain 1: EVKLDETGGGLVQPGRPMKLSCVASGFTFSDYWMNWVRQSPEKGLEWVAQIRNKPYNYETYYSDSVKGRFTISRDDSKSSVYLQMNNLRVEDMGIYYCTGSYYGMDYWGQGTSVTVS
chain 2: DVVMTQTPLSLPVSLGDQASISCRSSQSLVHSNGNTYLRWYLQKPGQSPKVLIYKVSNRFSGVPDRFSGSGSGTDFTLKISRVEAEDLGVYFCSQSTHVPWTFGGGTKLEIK

Variants of: B1
Assay: Kd (Tite-Seq)
Conditions: with fluorescein; format: scFv 4-4-20, heavy + light
pKd: −log10 of the molar value.

| alteration | pKd |
| --- | --- |
| chain 1 D31H M34Y | 8.55 |
| chain 1 F29D Y32E | ≤ 5.00 |
| chain 1 F29V N35D | ≤ 5.00 |
| chain 1 Y102N G104Q | ≤ 5.00 |
| chain 1 M105D G109F | ≤ 5.00 |
| chain 1 S30F N35T | ≤ 5.00 |
| chain 1 G100N Y102D G109M | ≤ 5.00 |
| chain 1 G104H Y107M | ≤ 5.00 |
| chain 1 D106W Y107I | ≤ 5.00 |
| chain 1 Y107L | 5.72 |
| chain 1 S30H D31K | 8.33 |
| chain 1 S101C Y107G | ≤ 5.00 |
| chain 1 G104K | ≤ 5.00 |
| chain 1 Y107P G109N | ≤ 5.00 |
| chain 1 S101H M105V | ≤ 5.00 |
| chain 1 G100R D106V | ≤ 5.00 |
| chain 1 G100W D106S W108L | ≤ 5.00 |
| chain 1 S101Y D106E | ≤ 5.00 |
| chain 1 Y32T V37H | ≤ 5.00 |
| chain 1 S101M G104I | ≤ 5.00 |
| chain 1 N35R | ≤ 5.00 |
| chain 1 Y103Q W108N | ≤ 5.00 |
| chain 1 S101C G109N | ≤ 5.00 |
| chain 1 Y32C M34F | ≤ 5.00 |
| chain 1 M34F | 8.65 |
| chain 1 W108C | 9.19 |
| chain 1 Y32C W36R | ≤ 5.00 |
| chain 1 S101R Y107L | ≤ 5.00 |
| chain 1 F29W N35G | ≤ 5.00 |
| chain 1 D31N M34A | 8.71 |
| chain 1 F29M | 8.60 |
| chain 1 Y32P W33I | ≤ 5.00 |
| chain 1 G100L D106L | ≤ 5.00 |
| chain 1 Y32E N35S | ≤ 5.00 |
| chain 1 D31R Y32K V37Y | ≤ 5.00 |
| chain 1 Y103K G104R W108V | ≤ 5.00 |
| chain 1 F29L W33Y | ≤ 5.00 |
| chain 1 Y103N | 8.15 |
| chain 1 S30V D31M | 7.43 |
| chain 1 F29W D31F | ≤ 5.00 |
| chain 1 G100Y G109P | ≤ 5.00 |
| chain 1 G109S | 8.44 |
| chain 1 D106R | ≤ 5.00 |
| chain 1 S101N Y103L | ≤ 5.00 |
| chain 1 N35C V37K | ≤ 5.00 |
| chain 1 F29N W36L | ≤ 5.00 |
| chain 1 W108A G109C | ≤ 5.00 |
| chain 1 S30L Y32H | 5.65 |
| chain 1 Y103W G109S | ≤ 5.00 |
| chain 1 T28Y F29T W33T | ≤ 5.00 |
| chain 1 F29Q | 7.93 |
| chain 1 D31H | 8.75 |
| chain 1 W36M | 7.59 |
| chain 1 S101G | ≤ 5.00 |
| chain 1 S30P D31S N35P | ≤ 5.00 |
| chain 1 T28I S30M | 8.98 |
| chain 1 D31L Y32H N35V | ≤ 5.00 |
| chain 1 G104K Y107P G109N | ≤ 5.00 |
| chain 1 G104N G109Y | ≤ 5.00 |
| chain 1 T28E V37C | 9.43 |
| chain 1 F29S D31W | ≤ 5.00 |
